Tested on: Hep3B
Test: Hepatocellular carcinoma cell viability, AlamarBlue
Type: cell-based
Settings: Homo sapiens, 24 hours, read-out: Hepatocarcinoma Cell Line IC50 Values Hep3B
Entries annotated with measured IC50
Give your result in µM as a bare value.

CN(C)C(=O)c1cc2cnc(Nc3ccc(-c4csc5c(=O)cc(N6CCOCC6)oc45)cc3)nc2n1C1CCCC1    1.1

Prompt: Which measured IC50 value corresponds to O=c1cc(N2CCOCC2)oc2c(-c3ccc4c(c3)OCCO4)csc12 [Compound 0, reference compound] ?
Completion: 6.6

###

Each entry below carries its recorded IC50.
Biological target: CDK6 (Homo sapiens, UniProt Q00534)
Construct: Reaction Biology Corp., Malvern, PA (contract assay service)
Sequence (Q00534 whole entry): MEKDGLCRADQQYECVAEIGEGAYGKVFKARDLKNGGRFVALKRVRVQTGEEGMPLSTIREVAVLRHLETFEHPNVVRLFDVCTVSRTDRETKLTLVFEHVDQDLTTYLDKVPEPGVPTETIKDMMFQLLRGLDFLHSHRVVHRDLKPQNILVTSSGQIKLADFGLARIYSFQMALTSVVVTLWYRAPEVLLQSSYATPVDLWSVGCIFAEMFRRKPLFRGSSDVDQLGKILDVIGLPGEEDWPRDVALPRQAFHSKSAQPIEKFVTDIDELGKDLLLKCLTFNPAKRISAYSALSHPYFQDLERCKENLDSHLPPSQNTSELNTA
Sequence (P24385 whole entry partner): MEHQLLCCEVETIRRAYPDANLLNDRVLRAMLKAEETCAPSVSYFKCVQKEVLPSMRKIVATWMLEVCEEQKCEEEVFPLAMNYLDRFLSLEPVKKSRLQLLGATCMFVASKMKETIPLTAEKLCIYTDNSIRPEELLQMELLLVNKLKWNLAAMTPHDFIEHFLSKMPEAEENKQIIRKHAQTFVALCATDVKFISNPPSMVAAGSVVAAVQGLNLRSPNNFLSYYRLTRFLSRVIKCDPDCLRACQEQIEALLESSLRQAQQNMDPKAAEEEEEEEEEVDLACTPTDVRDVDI
Assay: Cyclin dependent kinase inhibition (Reaction Biology Corp.)
Assay type: biochemical
Settings: 10-point curve, grouped by potency
Structures can show the parent of a compound that is named as a salt.

CN(C)C(=O)c1cc2cnc(Nc3ccc(-c4csc5c(=O)cc(N6CCN(C(=O)OC(C)(C)C)CC6)oc45)cc3)nc2n1C1CCCC1 [Compound 18]    < 100 nM
CN(C)C(=O)c1cc2cnc(Nc3ccc(-c4csc5c(=O)cc(N6CCOCC6)oc45)cc3)nc2n1C1CCCC1 [Compound 1]    < 100 nM
CN(C)C(=O)c1cc2cnc(Nc3ccc(-c4csc5c(=O)cc(N6CCNCC6)oc45)cc3)nc2n1C1CCCC1 [compound 2, hydrochloride]    < 100 nM
CN(C)C(=S)c1cc2cnc(Nc3ccc(-c4csc5c(=S)cc(N6CCOCC6)oc45)cc3)nc2n1C1CCCC1 [Compound 12]    100 to 1000 nM
CN(C)C(=O)c1cc2cnc(Nc3ccc(-c4csc5c(=O)cc(N6CCOCC6)oc45)c(C(=O)O)c3)nc2n1C1CCCC1 [Compound 10]    5000 to 50000 nM
CC(=O)c1c(C)c2cnc(Nc3ccc(-c4csc5c(=O)cc(N6CCOCC6)oc45)cc3)nc2n(C2CCCC2)c1=O [Compound 6]    < 100 nM
CN(C)C(=O)c1cc2cnc(Nc3ccc(-c4csc5c(=S)cc(N6CCOCC6)oc45)cc3)nc2n1C1CCCC1 [Compound 11]    < 100 nM
COC(=O)c1cc(-c2csc3c(=O)cc(N4CCOCC4)oc23)ccc1Nc1ncc2cc(C(=O)N(C)C)n(C3CCCC3)c2n1 [Compound 4]    > 50000 nM
Cc1nc2c(F)cc(-c3nc(Nc4ccc(-c5csc6c(=O)cc(N7CCOCC7)oc56)cc4)ncc3F)cc2n1C(C)C [Compound 5]    < 100 nM
CN(C)C(=O)c1cc2cnc(Nc3ccc(-c4csc5c(=O)cc(N6CCOCC6)oc45)cn3)nc2n1C1CCCC1 [Compound 3]    < 100 nM

Prompt: IC50 of COC(=O)c1cc(Nc2ncc3cc(C(=O)N(C)C)n(C4CCCC4)c3n2)ccc1-c1csc2c(=O)cc(N3CCOCC3)oc12 [Compound 7] on CDK6 (Homo sapiens, UniProt Q00534)?
Completion: < 100 nM

###

Target: BRD4 binding domain 1 (Homo sapiens)
Construct: Reaction Biology Corp., Malvern, PA (contract assay service)
Test: Bromodomain protein inhibition (Reaction Biology Corp.)
Conditions: read-out: IC50 BRD4 binding domain 1
Assay Metric: IC50 (µM)
Answer format: numeric, µM implied, no suffix.

Prompt: Given CN1CCN(c2ccc(Nc3ncc4cc(C#N)c(=O)n(C5CCCC5)c4n3)cc2)CC1 [ON123300, reference compound] , state its recorded IC50.
Completion: 45.6

Value source: patent US11760762B2
